A collection of compounds and their measured pIC50
Target: UniProt:A3FQN0
Sequence (A3FQN0 1-433): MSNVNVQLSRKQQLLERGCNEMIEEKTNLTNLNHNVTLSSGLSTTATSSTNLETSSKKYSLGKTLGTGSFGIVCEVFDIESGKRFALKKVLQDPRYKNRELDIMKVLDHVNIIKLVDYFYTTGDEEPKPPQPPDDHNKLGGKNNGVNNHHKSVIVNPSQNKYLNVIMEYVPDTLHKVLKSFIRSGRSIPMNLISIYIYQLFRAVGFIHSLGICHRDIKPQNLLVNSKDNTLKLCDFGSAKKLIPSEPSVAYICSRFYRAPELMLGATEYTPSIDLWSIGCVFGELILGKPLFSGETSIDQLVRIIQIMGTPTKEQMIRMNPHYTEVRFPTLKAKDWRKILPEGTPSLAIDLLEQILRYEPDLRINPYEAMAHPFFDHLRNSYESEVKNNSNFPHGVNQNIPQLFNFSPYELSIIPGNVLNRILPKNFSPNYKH
Assay: Species specificity: recombinant tagged GSK-3 orthologue kinase assay
Assay type: biochemical
pIC50: −log10 of the molar value.

Examples with their reported pIC50 follow.
INSERT INTO measurements (line_notation, measured_target, result) VALUES
  ('COc1ccccc1-c1c(C#N)c(N)nc2sc(C(=O)c3ccccc3)c(N)c12', 'UniProt:A3FQN0', '< 4.00'),
  ('N#Cc1c(N)nc2sc(C(=O)c3cccc(Cl)c3)c(N)c2c1-c1ccccc1Cl', 'UniProt:A3FQN0', '< 4.00');

Please fill in: pIC50 reported for N#Cc1c(N)nc2sc(C(=O)c3ccc(Cl)cc3)c(N)c2c1-c1ccccc1I = < 4.00

---

Target: Mammalian GSK-3 (GSK-3α/β)
Test: Kinase assay with native porcine GSK3 purified from porcine brain, GS-1 peptide and [γ-33P] ATP
Format: biochemical
Conditions: read-out: mammalian GSK-3α/β IC50
From the text: Porcine GSK3 (GSK-3α/β) was purified from porcine brain by affinity chromatography on immobilized axin according to the protocol described in Primot et al (Protein Expression and Purification 20, 394-404, 2000). […]
EXPERIMENTAL READOUT: IC50

Please fill in: IC50 reported for N#Cc1c(N)nc2sc(C(=O)c3cccc(Cl)c3)c(N)c2c1-c1ccccc1Cl [Compound 22] = > 10 µM

---

A collection of molecules and their measured IC50
Biological target: GSK-3 (Dictyostelium discoideum, UniProt P51136)
Sequence (P51136 whole entry): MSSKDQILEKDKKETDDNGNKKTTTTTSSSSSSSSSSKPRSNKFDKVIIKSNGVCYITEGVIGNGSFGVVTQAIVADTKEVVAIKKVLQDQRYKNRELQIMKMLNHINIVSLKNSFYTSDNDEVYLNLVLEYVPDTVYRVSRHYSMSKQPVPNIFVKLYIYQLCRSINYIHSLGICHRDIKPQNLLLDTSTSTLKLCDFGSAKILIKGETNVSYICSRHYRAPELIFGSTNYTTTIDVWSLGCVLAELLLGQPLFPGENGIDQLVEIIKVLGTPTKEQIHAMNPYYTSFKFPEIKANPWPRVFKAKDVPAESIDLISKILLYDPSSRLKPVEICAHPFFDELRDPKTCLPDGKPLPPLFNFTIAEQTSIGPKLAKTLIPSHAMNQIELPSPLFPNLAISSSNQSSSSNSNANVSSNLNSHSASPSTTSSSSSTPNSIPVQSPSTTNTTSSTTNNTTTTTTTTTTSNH
Test: Species specificity: recombinant tagged GSK-3 orthologue kinase assay

INSERT INTO measurements (molecule, result) VALUES
  ('N#Cc1c(N)nc2sc(C(=O)c3cccc(Cl)c3)c(N)c2c1-c1ccccc1Br [Compound 20]', '80 µM');

Summary: COc1ccccc1-c1c(C#N)c(N)nc2sc(C(=O)c3ccccc3)c(N)c12 [Compound 2] , GSK-3 (Dictyostelium discoideum, UniProt P51136), IC50 = > 100 µM

Summary: N#Cc1c(N)nc2sc(C(=O)c3cccc(Cl)c3)c(N)c2c1-c1ccccc1I [Compound 14] , GSK-3 (Dictyostelium discoideum, UniProt P51136), IC50 = > 100 µM

Summary: N#Cc1cccc(C(=O)c2sc3nc(N)c(C#N)c(-c4ccccc4Cl)c3c2N)c1 [Compound 26] , GSK-3 (Dictyostelium discoideum, UniProt P51136), IC50 = > 100 µM

Summary: N#Cc1c(N)nc2sc(C(=O)c3cccc(Cl)c3)c(N)c2c1-c1ccccc1Cl [Compound 22] , GSK-3 (Dictyostelium discoideum, UniProt P51136), IC50 = > 10 µM

Summary: N#Cc1c(N)nc2sc(C(=O)c3ccc(Cl)cc3)c(N)c2c1-c1ccccc1I [Compound 1] , GSK-3 (Dictyostelium discoideum, UniProt P51136), IC50 = > 100 µM

---

Target: GSK-3 (Toxoplasma gondii, UniProt O44002)
Sequence (O44002 1-394): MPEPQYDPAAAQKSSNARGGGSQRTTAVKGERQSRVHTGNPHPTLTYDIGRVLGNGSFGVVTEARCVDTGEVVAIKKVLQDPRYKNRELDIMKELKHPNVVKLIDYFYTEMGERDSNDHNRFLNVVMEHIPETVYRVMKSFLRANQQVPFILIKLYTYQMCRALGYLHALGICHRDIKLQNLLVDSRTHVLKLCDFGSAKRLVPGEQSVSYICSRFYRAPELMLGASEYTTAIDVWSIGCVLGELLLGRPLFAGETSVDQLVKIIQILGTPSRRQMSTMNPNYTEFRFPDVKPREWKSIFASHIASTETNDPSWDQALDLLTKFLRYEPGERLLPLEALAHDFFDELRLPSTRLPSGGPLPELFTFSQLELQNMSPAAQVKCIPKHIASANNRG
Assay: Species specificity: recombinant tagged GSK-3 orthologue kinase assay
Format: biochemical, Toxaplasma grondii
Settings: calculated from dose-response curves; -(100) taken as no inhibition at 100; read-out: IC50 Toxaplasma grondii
pIC50: −log10 of the molar value.
A collection of compounds and their measured pIC50

Examples with their reported pIC50 follow.
INSERT INTO measurements (compound, result) VALUES
  ('N#Cc1c(N)nc2sc(C(=O)c3cccc(Cl)c3)c(N)c2c1-c1ccccc1I [Compound 14]', '< 4.00'),
  ('N#Cc1cccc(C(=O)c2sc3nc(N)c(C#N)c(-c4ccccc4Cl)c3c2N)c1 [Compound 26]', '< 4.00');

# context switch: different compound, same pIC50
Please fill in: pIC50 reported for N#Cc1c(N)nc2sc(C(=O)c3cccc(Cl)c3)c(N)c2c1-c1ccccc1Br [Compound 20] = < 4.00
